- Tested on: K4 kissing-loop RNA reporter;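 note: bound reporter read as fluorescence of individual clusters on recovered sequencing chips by microscopy, with normalized cluster intensities fitted with a binding model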
- test-method-notes: apparent KD of K4 kissing-loop reporter; higher = weaker reporter binding
- condition-summary: Eterna round: R107; input ligand: tryptophan 2.4 mM
Lab note: compare apparent KD of K4 kissing-loop reporter against 100 nM. Equal or greater, write Satisfied. Smaller, write Not satisfied.

Reference set, count: 2
[Q] # check: apparent KD of K4 kissing-loop reporter of GAUGGUCGAGAAGGAUAUGUGACUACCAGAAGGAAAUUCAGUGAUGUUGAUUGUCGCGAGCAGGAGACAGAAGGUCUCAGACAUA [theeternabot_exclusion_KL_FMN_B_5] is greater than or equal to 100 nM
[A] Satisfied

[Q] # check: apparent KD of K4 kissing-loop reporter of AGUAUGUAAUAUGGCAUAUUUAGAACUGAAGGAGCGCCGAAUAAGGCAGGUAGGUCGCGGAAAUAUGAGUGAUGUUCAUGUUUAA [KL-SSArg-A25] is greater than or equal to 100 nM
[A] Not satisfied

More entries:
[Q] # check: apparent KD of K4 kissing-loop reporter of UACUUAUAUAUCAACUUAAAUUAUUCAGAAGGAGCGUGAUCAUUCACAGGUAGGUCGCUGAACUAGUGAUGUUAGUUUUAAUUUU [JR_Nu_ExcArginiA_Sub023] is greater than or equal to 100 nM
[A] Not satisfied

[Q] # check: apparent KD of K4 kissing-loop reporter of GUCGGCCGCGCGCAAGCGCGGCCGGCCGAUACCAGCGCGCCGGUGCGCCCUUGGCAGCGGCACCGAGUGAUGUUCGGUCAGACGA [#2 Same State - Theophylline A Attempt #6 (HarryS)] is greater than or equal to 100 nM
[A] Satisfied

* * *

- Tested on: MS2 coat protein
- test-method-notes: apparent KD of MS2 coat protein; designed switch direction (-1 OFF switch, 1 ON switch): -1; higher = weaker reporter binding
- condition-summary: Eterna round: R95; input ligand: microRNA oligo, concentration not stated
Lab note: compare apparent KD of MS2 coat protein against 20 nM. Equal or greater, write YES. Smaller, write NO.

Reference set, count: 4
[Q] # check: apparent KD of MS2 coat protein of UCAUGGUAGCAGGAUAUGCUAUUUAUUUUUUAUGCAGAAGGGCUUACAUGAGGAUCACCCAUGUGUUAGGUUUA [JR_E6_Sub072] (puzzle: Exclusion 6) is greater than or equal to 20 nM
[A] YES

[Q] # check: apparent KD of MS2 coat protein of AAACUGUGAGGAUAUGGUGAGUAGUGCCUGAGCGCUGCUCACCAGAAGGCACAUGAGGAUCACCCAUGUAUAAC [Mat - Exclusion 4 - Mod of JL - D5] (puzzle: Exclusion 4) is greater than or equal to 20 nM
[A] YES

[Q] # check: apparent KD of MS2 coat protein of AGCAUGCUAGGAUAUACGAAACAUUAGGGUUCUUUGUAUGAACAUGAGGAUCACCCAUGUAGAAGGAGCGUGCA [Mat - Exclusion 2 - Mod of Hyphema - D96] (puzzle: Exclusion 2) is greater than or equal to 20 nM
[A] YES

[Q] # check: apparent KD of MS2 coat protein of CAUAGUAAUUAGGAUAUCUGCCGGCUGAACCGAGGAGAAGGGAUUACAUGAGGAUCACCCAUGUGGUCCUAAGA [Relegebe] (puzzle: Exclusion 6) is greater than or equal to 20 nM
[A] NO

More entries:
[Q] # check: apparent KD of MS2 coat protein of CUCCUACAUGAGGAUCACCCAUGUCAGGAUAUCUCAGUAGCACCUAAAGGUGCUACCCAGAGAAGGGACGUGCA [Enororce] (puzzle: Exclusion 1) is greater than or equal to 20 nM
[A] NO
